Parameter AC50: see the listing below.
Target: Progesterone receptor (Homo sapiens); also: assay procedure not described here
Sequence (P06401 whole entry): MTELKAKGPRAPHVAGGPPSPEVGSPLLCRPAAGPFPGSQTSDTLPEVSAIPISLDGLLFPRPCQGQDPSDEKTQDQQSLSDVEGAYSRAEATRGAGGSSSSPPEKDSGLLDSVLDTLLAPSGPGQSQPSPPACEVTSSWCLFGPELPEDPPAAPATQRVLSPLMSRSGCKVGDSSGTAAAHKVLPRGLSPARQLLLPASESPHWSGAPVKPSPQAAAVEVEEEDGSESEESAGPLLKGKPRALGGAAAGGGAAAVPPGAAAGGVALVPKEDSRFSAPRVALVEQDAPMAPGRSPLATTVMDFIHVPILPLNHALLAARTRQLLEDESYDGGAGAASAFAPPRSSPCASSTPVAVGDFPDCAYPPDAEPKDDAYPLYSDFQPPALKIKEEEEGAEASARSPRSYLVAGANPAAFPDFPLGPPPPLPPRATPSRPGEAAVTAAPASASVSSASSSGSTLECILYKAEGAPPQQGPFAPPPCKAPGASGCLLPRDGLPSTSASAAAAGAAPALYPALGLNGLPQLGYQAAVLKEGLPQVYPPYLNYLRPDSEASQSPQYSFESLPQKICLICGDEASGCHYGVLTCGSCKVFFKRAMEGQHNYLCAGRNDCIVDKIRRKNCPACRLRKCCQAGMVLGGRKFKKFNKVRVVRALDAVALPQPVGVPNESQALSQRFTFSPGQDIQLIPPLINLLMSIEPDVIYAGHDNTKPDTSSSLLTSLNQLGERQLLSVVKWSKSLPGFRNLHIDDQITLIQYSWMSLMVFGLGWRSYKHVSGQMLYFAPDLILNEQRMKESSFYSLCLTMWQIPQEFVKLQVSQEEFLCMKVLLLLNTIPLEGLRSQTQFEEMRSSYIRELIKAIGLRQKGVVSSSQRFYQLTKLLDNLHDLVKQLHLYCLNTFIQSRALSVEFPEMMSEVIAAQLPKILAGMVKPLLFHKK
Assay type: functional

Recorded AC50, per entry:
| Compound | Test System | Reported Value |
| --- | --- | --- |
| C/C(=C\C(=O)OCCCCCCCCC(=O)O)C[C@@H]1OC[C@H](C[C@@H]2O[C@H]2[C@@H](C)[C@H](C)O)[C@@H](O)[C@H]1O | Progesterone receptor (Homo sapiens) | > 10 µM |
| C/N=C(\NC)NCc1ccccc1 | Progesterone receptor (Homo sapiens) | > 30 µM |
| COc1ccccc1OCCNCC(O)COc1cccc2[nH]c3ccccc3c12 (configuration not stated) | Progesterone receptor (Homo sapiens) | > 30 µM |
| CC(=O)O[C@]1(C(C)=O)CC[C@H]2[C@@H]3C=C(C)C4=CC(=O)CC[C@@H]4[C@H]3CC[C@@]21C [NOMEGESTROL ACETATE] | Progesterone receptor (Homo sapiens) | 0.028 µM |
| CC1OC2(CS1)CN1CCC2CC1 (configuration not stated) | Progesterone receptor (Homo sapiens) | > 10 µM |

Record `Oc1ccc2c(c1)[C@@]13CCCC[C@@]1(O)[C@@H](C2)N(CC1CCC1)CC3` . Reported AC50: > 30 µM

Notebook: Clc1ccc(C(Cn2ccnc2)OCc2ccsc2Cl)c(Cl)c1 (configuration not stated) , AC50 read as > 30 µM

// field: AC50; key: CC(C)NCC(O)c1ccc(O)c(O)c1 (configuration not stated) ; value = > 30 µM

Kindly note the recorded AC50 for `Clc1ccc2c(N3CCN(CCCN4CCN(c5ccnc6cc(Cl)ccc56)CC4)CC3)ccnc2c1` , which is > 30 µM

GET /value?item= `Cc1noc(NS(=O)(=O)c2ccc(N)cc2)c1C` &field=AC50 returns > 10 µM

Short answer for `CC[C@@H]([C@H](C)O)n1ncn(-c2ccc(N3CCN(c4ccc(OC[C@@H]5CO[C@@](Cn6cncn6)(c6ccc(F)cc6F)C5)cc4)CC3)cc2)c1=O` : AC50 was > 30 µM

Short answer for C[C@]12C=CC(=O)N[C@@H]1CC[C@@H]1[C@@H]2CC[C@]2(C)[C@@H](C(=O)Nc3cc(C(F)(F)F)ccc3C(F)(F)F)CC[C@@H]12 [DUTASTERIDE] : AC50 was > 10 µM
